Each recorded value in this set is attributed to patent US9708270B2.

Measured on: human GPR120 (Homo sapiens (Human))
Assay remarks: FLIPR assay: intracellular calcium in CHO cells expressing human GPR120
Format: cell-based
Experimental context: FLIPR calcium assay, CHO cells expressing human GPR120, agonist action
pEC50: −log10 of the molar value.
Measured parameter: pEC50

# count of solved cases: 2
| Compound | pEC50 |
| --- | --- |
| O=C(O)CC1CCC2(CC1)CCN(c1cc([N+](=O)[O-])ccc1Cl)CC2 [Example 10] | 5.77 |
| O=C(O)CC1CCC2(CC1)CCN(c1cc(F)cc(Cl)c1)CC2 [Example 29] | 5.75 |

[A] Cc1cc(Cl)cc(N2CCC3(CCC(CC(=O)O)CC3)CC2)c1 [Example 45]
[B] COc1ccc(C(F)(F)F)cc1N1CCC2(CCC(CC(=O)O)CC2)CC1 [Example 15]
[C] Cc1cccnc1Oc1ccc(C#N)c(N2CCC3(CCC(CC(=O)O)CC3)CC2)c1 [Example 79]
Exam item: # sort list by recorded pEC50, greatest to least The labels, placed in the requested order, form the answer.
Marked response: A, B, C

* * *

Measured on: human GPR120 (Homo sapiens (Human))
Assay remarks: FLIPR assay: intracellular calcium in CHO cells expressing human GPR120
Assay type: cell-based
Experimental context: FLIPR calcium assay, CHO cells expressing human GPR120, agonist action
pEC50: −log10 of the molar value.
Measured parameter: pEC50

| Compound | pEC50 |
| --- | --- |
| COc1cc(F)c(N2CCC3(CCC(CC(=O)O)CC3)CC2)cc1F | 5.62 |
| O=C(O)CC1CCC2(CC1)CCN(c1cc(F)cc(C(F)(F)F)c1)CC2 | 5.92 |
| O=C(O)CC1CCC2(CC1)CCN(c1cc(C(F)(F)F)ccc1F)CC2 | 6.19 |
| COc1cc(N2CCC3(CCC(CC(=O)O)CC3)CC2)c(F)cn1 | 5.47 |
| O=C(O)CC1CCC2(CC1)CCN(c1cc(OC3CCC3)ccc1Cl)CC2 | 6.48 |
| CN(C)c1cccc(N2CCC3(CCC(CC(=O)O)CC3)CC2)c1 | 5.53 |
| CCc1cc(CC)cc(N2CCC3(CCC(CC(=O)O)CC3)CC2)c1 | 5.59 |
| O=C(O)CC1CCC2(CC1)CCN(c1ccc(-c3ccccc3)cc1)CC2 | 5.31 |
| Cc1cc(C)cc(N2CCC3(CCC(CC(=O)O)CC3)CC2)c1 | 6.02 |
| N#Cc1ccc(F)cc1N1CCC2(CCC(CC(=O)O)CC2)CC1 | 5.63 |

[I] CC(C)Oc1cc(OC(F)(F)F)cc(N2CCC3(CCC(CC(=O)O)CC3)CC2)c1
[II] NCCC1CCC2(CC1)CCN(c1cc(OC(F)(F)F)ccc1Cl)CC2
[III] Cc1ccc(Cl)c(N2CCC3(CCC(CC(=O)O)CC3)CC2)c1
Exam item: # sort list by recorded pEC50, greatest to least The labels, placed in the requested order, form the answer.
Marked response: I, III, II
(I: 5.92, III: 5.66, II: 5.25)

[I] O=C(O)CC1CCC2(CC1)CCN(c1cc(Cl)cc(C(F)(F)F)c1)CC2
[II] O=C(O)CCC1CCC2(CC1)CCN(c1cc(OC(F)(F)F)ccc1Cl)CC2
Exam item: Could you kindly indicate whether I or II has the higher pEC50 value? To answer, give the label that identifies your chosen option.
Marked response: I
(I: 6.08, II: 5.75)

[I] O=C(O)CC1CCC2(CC1)CCN(c1cc(Cl)cc(Cl)c1)CC2
[II] CC1CC(CC(=O)O)CCC12CCN(c1cc(OC(F)(F)F)ccc1Cl)CC2 (single isomer, unassigned) [Example 89c]
Exam item: Which entry shows the lesser value of pEC50 here, I or II ? To answer, give the label that identifies your chosen option.
Marked response: II
(II: 5.60, I: 6.06)

[1] O=C(O)CCCC1CCC2(CC1)CCN(c1cc(OC3CCC3)ccc1F)CC2
[2] O=C(O)CC1CCC2(CC1)CCN(c1cc(OC(F)(F)F)ccc1F)CC2
Exam item: Which entry shows the lesser value of pEC50 here, 1 or 2 ? To answer, give the label that identifies your chosen option.
Marked response: 1

* * *

Measured on: human GPR120 (Homo sapiens (Human), UniProt Q5NUL3)
Sequence (Q5NUL3 whole entry): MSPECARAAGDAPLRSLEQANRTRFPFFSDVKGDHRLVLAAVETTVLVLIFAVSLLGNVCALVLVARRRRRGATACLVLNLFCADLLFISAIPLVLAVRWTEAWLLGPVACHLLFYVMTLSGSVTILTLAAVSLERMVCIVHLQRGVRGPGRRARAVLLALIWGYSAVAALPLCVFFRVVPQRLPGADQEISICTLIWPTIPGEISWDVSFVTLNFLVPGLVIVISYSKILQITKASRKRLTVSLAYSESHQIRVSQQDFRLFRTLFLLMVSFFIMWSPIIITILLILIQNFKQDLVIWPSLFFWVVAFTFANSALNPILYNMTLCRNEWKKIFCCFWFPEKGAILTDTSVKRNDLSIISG
Assay remarks: IP1 assay (GPR120 assay adapted from Bergsdorf et al.)
Assay type: cell-based
Measured parameter: EC50 (nM)

| Molecule | Quantitative readout |
| --- | --- |
| COc1cc(F)c(N2CCC3(CCC(CCC(=O)O)C3)CC2)cc1OC1CCC1 (stereo not drawn) | 202 |
| N#Cc1ccc(OC(F)(F)F)cc1N1CCC2(CCC(CCC(=O)O)C2)CC1 (stereo not drawn) | 220 |
| O=C(O)CCC1CCC2(CCN(c3cc(OC4CCC4)ccc3Cl)CC2)C1 (stereo not drawn) | 44.8 |

* * *

Measured on: human GPR120 (Homo sapiens (Human), UniProt Q5NUL3)
Assay remarks: FLIPR assay: intracellular calcium in CHO cells expressing human GPR120
Type: cell-based
Experimental context: FLIPR calcium assay, CHO cells expressing human GPR120, agonist action
Method: All compounds were tested under the FLIPR assay unless otherwise indicated. Primers were synthesized in the domains on the opposite sides of the base sequences of the ORFs of the known GPCR and GPR120 in GenBank Accession NOs. […] As samples for PCR, human small intestine Marathon-ready cDNA (CLONTECH, current corporate name: TaKaRa) and cDMA obtained by reverse transcription of mouse BAT-derived RNA were used for human and mouse GPR120 receptor genes, respectively. […]
Measured parameter: EC50 (nM)

| Molecule | Quantitative readout |
| --- | --- |
| Cc1cc(N2CCC3(CCC(CC(=O)O)CC3)CC2)cc(C(F)(F)F)c1 | 671 |
| O=C(O)C[C@@H]1CCC2(CCN(c3cc(OC(F)(F)F)ccc3F)CC2)OC1 (single isomer, unassigned) [Example 93a] | 1300 |
| O=C(O)CC1CCC2(CC1)CCN(c1cc(OC3CCCC3)ccc1Cl)CC2 | 1100 |

[P] O=C(O)CCC1CCC2(CC1)CCN(c1cc(OC3CCC3)ccc1F)CC2
[Q] Cc1ccc(C(F)(F)F)cc1N1CCC2(CCC(CC(=O)O)CC2)CC1
Exam item: Which entry shows the lesser value of EC50 here, P or Q ? To answer, give the label that identifies your chosen option.
Marked response: Q

* * *

Measured on: human GPR120 (Homo sapiens (Human), UniProt Q5NUL3)
Assay remarks: FLIPR assay: intracellular calcium in CHO cells expressing human GPR120
Type: cell-based
Experimental context: FLIPR calcium assay, CHO cells expressing human GPR120, agonist action
pEC50: −log10 of the molar value.
Measured parameter: pEC50

# count of solved cases: 2
| Compound | Measured on | Quantitative readout |
| --- | --- | --- |
| N#Cc1ccc(OC2CCC2)cc1N1CCC2(CCC(CC(=O)O)CC2)CC1 | human GPR120 (Homo sapiens (Human), UniProt Q5NUL3) | 5.88 |
| CC1CC(CC(=O)O)CCC12CCN(c1cc(OC(F)(F)F)ccc1Cl)CC2 (stereo not shown) [Example 89] | human GPR120 (Homo sapiens (Human), UniProt Q5NUL3) | 5.60 |

[1] N#Cc1cc(SC(F)(F)F)cc(N2CCC3(CCC(CC(=O)O)CC3)CC2)c1
[2] O=C(O)CC1CCC2(CC1)CCN(c1cc(F)cc(Cl)c1F)CC2
Exam item: Could you kindly indicate whether 1 or 2 has the higher pEC50 value? To answer, give the label that identifies your chosen option.
Marked response: 1
